# logP per record follows
# testSummary: Partition coefficient (logP)
# Format: physicochemical
# appliedConditions: octanol/water
# output: bare number, no unit

See these solved cases before continuing.
structureSmiles	logP
COC(=O)Cc1ccc(-c2nc3cc4ccccc4cc3nc2-c2ccc(CC(=O)OC)s2)s1	4.95
COc1cc2nc(-c3cccs3)c(-c3cccs3)nc2cc1OC	4

We next turn to a different compound, shown below.
// query May I ask what logP has been recorded for COC(=O)CCc1ccc(-c2nc3cc4ccccc4cc3nc2-c2ccc(CCC(=O)OC)s2)s1 ?
// result 5

meta.source: ChEMBL document CHEMBL1140238
